# System: KRAS-mutant PDC tumor spheroid with HUVEC/MSC, viability;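 further: spheroids exposed to agents for seven days before reading; 100% = DMSO vehicle wells so lower means fewer viable cells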
# ASSAY PROTOCOL: Anticancer human tumor 327498-153-R-J2-PDC patient-derived uterine carcinosarcoma cell line growth inhibition [KRAS2]; active means viability on the fitted dose curve at most 10% of control; inactive means the rest
# RUN PARAMETERS: second compound 3.16 µM; first compound 3.16 µM
Outcomes: yes (1) for active, no (0) for inactive

| MOLECULE | ASSIGNED CATEGORY |
| --- | --- |
| CC(C)NCC(C(=O)N1CCN(c2ncnc3c2C(C)CC3O)CC1)c1ccc(Cl)cc1 (configuration not stated) + CNCc1ccccc1-c1csc(C(C)Nc2nc(C)nc3cc(OC)c(OC)cc23)c1 | yes (1) |
| CC1(C)CCC(CN2CCN(c3ccc(C(=O)NS(=O)(=O)c4ccc(NCC5CCOCC5)c([N+](=O)[O-])c4)c(Oc4cnc5[nH]ccc5c4)c3)CC2)=C(c2ccc(Cl)cc2)C1 + CNCc1ccccc1-c1csc(C(C)Nc2nc(C)nc3cc(OC)c(OC)cc23)c1 | yes (1) |
| O=C(c1cc(Cc2n[nH]c(=O)c3ccccc23)ccc1F)N1CCN(C(=O)C2CC2)CC1 + C=CC(=O)N1CCN(c2nc(=O)n(-c3c(C)ccnc3C(C)C)c3nc(-c4c(O)cccc4F)c(F)cc23)C(C)C1 | no (0) |
| CC1(C)CCC(CN2CCN(c3ccc(C(=O)NS(=O)(=O)c4ccc(NCC5CCOCC5)c([N+](=O)[O-])c4)c(Oc4cnc5[nH]ccc5c4)c3)CC2)=C(c2ccc(Cl)cc2)C1 + CC1OCC2(CCN(c3cnc(Sc4ccnc(N)c4Cl)c(N)n3)CC2)C1N | no (0) |
| COc1cc2nccc(Oc3ccc(NC(=O)C4(C(=O)Nc5ccc(F)cc5)CC4)cc3)c2cc1OC + COc1cc2nc(C)nc(NC(C)c3cc(N)cc(C(F)(F)F)c3)c2cc1OC1CCOC1 | no (0) |
| CC1(C)CCC(CN2CCN(c3ccc(C(=O)NS(=O)(=O)c4ccc(NCC5CCOCC5)c([N+](=O)[O-])c4)c(Oc4cnc5[nH]ccc5c4)c3)CC2)=C(c2ccc(Cl)cc2)C1 + C=CC(=O)N1CCN(c2nc(OCC3CCCN3C)nc3c2CCN(c2cccc4cccc(C)c24)C3)CC1CC#N | yes (1) |
| Cn1nccc1Nc1nccc(-c2cc3c(s2)C(C)(C)N(CCN2CCOCC2)C3=O)n1 + C=CC(=O)N1CCN(c2nc(=O)n(-c3c(C)ccnc3C(C)C)c3nc(-c4c(O)cccc4F)c(F)cc23)C(C)C1 | no (0) |
| CC1COCCN1c1cc(-c2ccnn2C)c2ccnc(-c3ccn[nH]3)c2n1 (configuration not stated) + C=CC(=O)N1CCN(c2nc(OCC3CCCN3C)nc3c2CCN(c2cccc4cccc(C)c24)C3)CC1CC#N | yes (1) |
| Cn1nccc1Nc1nccc(-c2cc3c(s2)C(C)(C)N(CCN2CCOCC2)C3=O)n1 + C=CC(=O)N1CCN(c2nc(OCC3CCCN3C)nc3c2CCN(c2cccc4cccc(C)c24)C3)CC1CC#N | yes (1) |
| Cn1nccc1Nc1nccc(-c2cc3c(s2)C(C)(C)N(CCN2CCOCC2)C3=O)n1 + CC1OCC2(CCN(c3cnc(Sc4ccnc(N)c4Cl)c(N)n3)CC2)C1N | no (0) |
| COc1cc2nccc(Oc3ccc(NC(=O)C4(C(=O)Nc5ccc(F)cc5)CC4)cc3)c2cc1OC + C=CC(=O)N1CCN(c2nc(=O)n(-c3c(C)ccnc3C(C)C)c3nc(-c4c(O)cccc4F)c(F)cc23)C(C)C1 | no (0) |
| CC(C)NCC(C(=O)N1CCN(c2ncnc3c2C(C)CC3O)CC1)c1ccc(Cl)cc1 (configuration not stated) + C=CC(=O)N1CCN(c2nc(=O)n(-c3c(C)ccnc3C(C)C)c3nc(-c4c(O)cccc4F)c(F)cc23)C(C)C1 | yes (1) |
